Recorded INHIBITION by entry
- System: Plasmodium berghei
- testSummary: Screen against P. berghei liver stage (PbLuc), transformed with Luciferase, at 2uM
- Type: functional, HepG2
- runConditions: tested at 2 uM
In all, about 68,000 compounds went through this assay and about 2,700 (4%) showed an effect of 50% or more. Many of the other results were omitted from the sample, so strong results are more common in it than they were.
Reply numerically in %, unit not repeated.

Some compounds with recorded INHIBITION:
Cn1nc2c(cc1=O)CN(Cc1nc(C(C)(C)C)no1)CC2 | 12.91
CCn1c(CC2CCN(C(=O)C3CCOC3)CC2)nn(C)c1=O (stereo unspecified) | -47.18
O=C(COc1coc(CN2CCCCC2)cc1=O)Nc1ccccc1Cl | -46.67
Cc1nc(CNCC2CCCN2c2cccnn2)no1 (stereo unspecified) | -12.31
O=C(c1ccc[nH]1)N1CCc2c(COCc3ccncc3)cncc2C1 | -18.76

With those in mind, consider the next compound.
Entry under test: Cc1ccc(C)c(OC(C)C(=O)Nc2cccnc2)c1 (stereo unspecified) . Its INHIBITION was 1.42
